Quick list: EC50 per entry.
- experimental-system: human activated kallikrein enzyme (Homo sapiens)
- protocol-summary: Plasma kallikrein inhibition, fluorogenic PFR-AMC substrate, 500 pM activated kallikrein format
- Assay type: biochemical
- condition-context: 500 pM activated kallikrein, 300 uM PFR-AMC, 30 min preincubation, 10 min reaction; read-out: Primary Dose Response Assay: Average EC50

Example entries begin here.
[[record]]
compound = "CN1C(=O)CN(c2cc(C3CC3)cn3cc(CNc4cc(NC(=O)[C@H]5C[C@@H]5c5nc(Cl)ccc5C#N)ncn4)nc23)C1=O (racemic) [Example I-167]"
value = "< 1 nM"

[[record]]
compound = "O=C(Nc1cc(NCc2cn3cc(C4CC4)cc(N4CC5(C4)CN(C4CC4)C5)c3n2)ccn1)[C@H]1C[C@@H]1c1cccc(Cl)c1 [Example I-24]"
value = "< 1 nM"

[[record]]
compound = "CC(NC(=O)[C@H]1C[C@@H]1c1cccc(Cl)c1)c1cn(Cc2cn3cc(C4CC4)ccc3n2)nn1 (single isomer, unassigned) [Example 590]"
value = "10 to 100 nM"

[[record]]
compound = "Cc1ccnc([C@H]2C[C@@H]2C(=O)Nc2ncc(F)c(NCc3cn4cc(C5CC5)cc(N5CC(=O)N(C)C5=O)c4n3)n2)n1 (racemic) [Example 517]"
value = "< 1 nM"

[[record]]
compound = "CN1CC(=O)N(c2cc(C3CC3)cn3cc(CNc4cc(NC(=O)[C@H]5C[C@@H]5c5cccc(Cl)c5)ncn4)nc23)CC1=O [Example 404]"
value = "< 1 nM"

[[record]]
compound = "O=C(Nc1cc(NCc2cn3cc(C4CC4)ccc3n2)ccn1)[C@H]1C[C@@H]1c1ccnc(Cl)c1 (racemic) [Example I-220]"
value = "10 to 100 nM"

[[record]]
compound = "CCOC(=O)CCc1cc(C2CC2)cn2cc(CNc3ccnc(NC(=O)[C@H]4C[C@@H]4c4cccc(Cl)c4)c3)nc12 [Example I-240]"
value = "1 to 10 nM"

[[record]]
compound = "Cc1ccnc([C@H]2C[C@@H]2C(=O)Nc2cc(N(CC(=O)OCc3ccccc3)Cc3cn4cc(C5CC5)cc(N5CC(=O)N(C)C5=O)c4n3)ncn2)n1 [Example 371]"
value = "1 to 10 nM"

[[record]]
compound = "CC(=O)N(C)c1cc(C2CC2)cn2cc(CNc3cc(NC(=O)[C@H]4C[C@@H]4c4cccc(Cl)c4)ncn3)nc12 [Example 274]"
value = "1 to 10 nM"


Problem: Given the entry CN1C(=O)CN(c2cc(C3CC3)cn3cc(CNc4ccnc(NC(=O)[C@H]5C[C@@H]5c5cccc(Cl)c5)c4)nc23)C1=O [Example I-209] , report its measured EC50.
Result: < 1 nM

###

Quick list: EC50 per entry.
- experimental-system: human activated kallikrein enzyme (Homo sapiens)
- protocol-summary: Plasma kallikrein inhibition, fluorogenic PFR-AMC substrate, 500 pM activated kallikrein format
- Assay type: biochemical
- condition-context: 500 pM activated kallikrein, 300 uM PFR-AMC, 30 min preincubation, 10 min reaction; read-out: Primary Dose Response Assay: Average EC50

[[record]]
compound = "Cc1ccnc([C@H]2C[C@@H]2C(=O)Nc2cc(NCc3cn4cc(C5CC5)cc(N5CC(=O)N(CC(F)(F)F)C5=O)c4n3)ncn2)n1 (racemic)"
endpoint_name = "EC50"
value = "< 1 nM"

[[record]]
compound = "Cc1ccnc([C@H]2C[C@@H]2C(=O)Nc2nccc(NCc3cn4cc(C5CC5)cc(N5CC(=O)N(C)C5=O)c4n3)n2)n1 (racemic)"
endpoint_name = "EC50"
value = "< 1 nM"

[[record]]
compound = "O=C(Nc1cc(NCc2cn3cc(C4CC4)ccc3n2)ncn1)[C@H]1C[C@@H]1c1cccc(C2CC2)c1 (racemic)"
endpoint_name = "EC50"
value = "> 6000 nM"

[[record]]
compound = "O=C(Nc1cc(NCc2cn3cc(C4CC4)cc(N4CCN5CC(O)CC5C4)c3n2)ccn1)[C@H]1C[C@@H]1c1cccc(Cl)c1 (stereo partly shown)"
endpoint_name = "EC50"
value = "< 1 nM"

[[record]]
compound = "Cc1ccnc([C@H]2C[C@@H]2C(=O)Nc2cc(N[C@H](C)c3cn4cc(C5CC5)cc(N5C[C@@H]6C[C@@H]6C5=O)c4n3)ncn2)n1 (racemic)"
endpoint_name = "EC50"
value = "< 1 nM"


Now consider a different compound.
Problem: Given the entry `O=C(Nc1cc(NCc2cn3cc(C4CC4)cc(N4CC(=O)N(C5CC5)C4=O)c3n2)ncn1)[C@H]1C[C@@H]1c1cccc(Cl)c1` , report its measured EC50.
Result: 1 to 10 nM

###

- experimental-system: human activated kallikrein enzyme (Homo sapiens)
- protocol-summary: Plasma kallikrein inhibition, fluorogenic PFR-AMC substrate, 500 pM activated kallikrein format
- Assay type: biochemical
- condition-context: 500 pM activated kallikrein, 300 uM PFR-AMC, 30 min preincubation, 10 min reaction; read-out: Primary Dose Response Assay: Average EC50
Quick list: EC50 per entry.

Example entries begin here.
[[record]]
compound = "N#Cc1ccc(Cl)cc1[C@@H]1C[C@H]1C(=O)Nc1cc(NCc2cn3cc(C4CC4)ccc3n2)cnn1 (racemic)"
endpoint_name = "EC50"
value = "1 to 10 nM"

[[record]]
compound = "Cc1ccnc([C@H]2C[C@@H]2C(=O)Nc2ncnc3nn(Cc4cn5cc(C6CC6)cc(N6CC(=O)N(C)C6=O)c5n4)cc23)n1 (racemic) [Example 632]"
endpoint_name = "EC50"
value = "< 1 nM"

[[record]]
compound = "O=C(Nc1cc(NCc2cn3cc(C4CC4)ccc3n2)ncn1)[C@H]1C[C@@H]1c1cccc(Cl)c1[N+](=O)[O-] (racemic)"
endpoint_name = "EC50"
value = "> 6000 nM"


Problem: Given the entry O=C(Nc1cc(NCc2cn3cc(C4CC4)ccc3n2)ccn1)[C@@]1(F)C[C@@H]1c1cccc(Cl)c1 (racemic) , report its measured EC50.
Result: 1 to 10 nM

Problem: Repeat with O=C(Nc1cc(NCc2cn3cc(C4CC4)cc(CN4CCOCC4)c3n2)ncn1)[C@H]1C[C@@H]1c1cccc(Cl)c1 (racemic)
Result: 1 to 10 nM

Problem: Repeat with `CC(=O)N1CCN(c2cc(C3CC3)cn3cc(CNc4cc(NC(=O)[C@H]5C[C@@H]5c5cccc(Cl)c5)ncn4)nc23)CC1`
Result: 1 to 10 nM

Problem: Repeat with `O=C(Nc1cc(NCc2cn3cc(C4CC4)cc(-c4ccc[nH]c4=O)c3n2)ncn1)[C@H]1C[C@@H]1c1cccc(Cl)c1`
Result: 1 to 10 nM

Problem: Repeat with Cc1ccnc([C@@H]2C[C@H]2C(=O)Nc2cc(OCc3cn4cc(C5CC5)cc(N5CC(=O)N(C)C5=O)c4n3)ncn2)n1 (racemic) [Example 28]
Result: < 1 nM

Problem: Repeat with `O=C(Nc1cc(NCc2cn3cc(C4CC4)cc(C4(F)CNC4)c3n2)ccn1)[C@H]1C[C@@H]1c1cccc(Cl)c1`
Result: < 1 nM

Problem: Repeat with `Cc1ccnc([C@H]2C[C@@H]2C(=O)Nc2cccc(S(=O)(=O)Cc3cn4cc(C5CC5)cc(N5CC(=O)N(C)C5=O)c4n3)c2)n1`
Result: > 6000 nM

###

Quick list: EC50 per entry.
- experimental-system: human activated kallikrein enzyme (Homo sapiens, UniProt P03952)
- Sequence (P03952 391-638 limits assumed): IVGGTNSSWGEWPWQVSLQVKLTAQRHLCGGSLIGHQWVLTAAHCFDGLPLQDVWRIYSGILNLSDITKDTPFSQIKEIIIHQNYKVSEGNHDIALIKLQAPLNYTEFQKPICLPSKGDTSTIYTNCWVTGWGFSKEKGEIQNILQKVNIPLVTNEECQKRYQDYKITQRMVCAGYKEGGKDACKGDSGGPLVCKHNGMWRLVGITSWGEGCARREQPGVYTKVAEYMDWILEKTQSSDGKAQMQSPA
- Sequence (P03952 20-390 partner limits assumed): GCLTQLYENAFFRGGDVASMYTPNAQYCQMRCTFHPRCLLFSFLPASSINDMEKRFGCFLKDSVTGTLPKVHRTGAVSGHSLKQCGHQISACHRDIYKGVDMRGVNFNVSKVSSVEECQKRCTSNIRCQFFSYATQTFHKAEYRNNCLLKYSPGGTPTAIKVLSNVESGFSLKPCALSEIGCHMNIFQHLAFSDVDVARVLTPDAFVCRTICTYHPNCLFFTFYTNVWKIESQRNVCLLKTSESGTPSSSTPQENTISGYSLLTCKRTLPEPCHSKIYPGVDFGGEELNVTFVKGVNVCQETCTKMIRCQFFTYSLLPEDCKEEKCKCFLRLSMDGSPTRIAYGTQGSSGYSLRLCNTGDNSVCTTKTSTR
- protocol-summary: Plasma kallikrein inhibition, fluorogenic PFR-AMC substrate, 500 pM activated kallikrein format
- Type: biochemical
- condition-context: 500 pM activated kallikrein, 300 uM PFR-AMC, 30 min preincubation, 10 min reaction; read-out: Primary Dose Response Assay: Average EC50

Example entries begin here.
[[record]]
compound = "CN1C(=O)CN(c2cc(C3CC3)cn3cc(CNc4cc(NC(=O)[C@H]5C[C@@H]5c5cc(Cl)ccn5)ncn4)nc23)C1=O (racemic) [Example I-262]"
experimental_system = "human activated kallikrein enzyme (Homo sapiens, UniProt P03952)"
value = "< 1 nM"

[[record]]
compound = "O=C(Nc1cc(N2C[C@@H](O)C[C@@H]2c2cn3cc(C4CC4)ccc3n2)ncn1)[C@H]1C[C@@H]1c1cccc(Cl)c1 [Example 283]"
experimental_system = "human activated kallikrein enzyme (Homo sapiens, UniProt P03952)"
value = "1 to 10 nM"

[[record]]
compound = "Cc1nccc([C@H]2C[C@@H]2C(=O)Nc2cc(NCc3cn4cc(C5CC5)cc(N5CC(=O)N(C)C5=O)c4n3)ncn2)n1 (racemic) [Example 499]"
experimental_system = "human activated kallikrein enzyme (Homo sapiens, UniProt P03952)"
value = "1 to 10 nM"

[[record]]
compound = "Cc1ccnc([C@H]2C[C@@H]2C(=O)Nc2cccc(SCc3cn4cc(C5CC5)cc(N5CC(=O)N(C)C5=O)c4n3)c2)n1 [Example I-645]"
experimental_system = "human activated kallikrein enzyme (Homo sapiens, UniProt P03952)"
value = "10 to 100 nM"

[[record]]
compound = "O=C(O)CN1CCN(c2cc(C3CC3)cn3cc(CNc4ccnc(NC(=O)[C@H]5C[C@@H]5c5cccc(Cl)c5)c4)nc23)CC1 [Example 602]"
experimental_system = "human activated kallikrein enzyme (Homo sapiens, UniProt P03952)"
value = "< 1 nM"


Problem: Given the entry Cc1ccnc([C@@]2(F)C[C@@H]2C(=O)Nc2cc(N[C@H](C)c3cn4cc(C5CC5)cc(N5CC(=O)N(C)C5=O)c4n3)nc(C)n2)n1 (racemic) [Example 546] , report its measured EC50.
Result: < 1 nM

Problem: Repeat with O=C(Nc1cc(NCc2cn3cc(C4CC4)ccc3n2)ccn1)[C@@H]1C[C@]12CCc1ccc(Cl)cc12 (single isomer, unassigned) [Example I-273]
Result: < 1 nM

Problem: Repeat with CN1C(=O)CCN(c2cc(C3CC3)cn3cc(CNc4cc(NC(=O)[C@H]5C[C@@H]5c5cccc(Cl)c5)ncn4)nc23)C1=O [Example I-194]
Result: < 1 nM

Problem: Repeat with Cc1ncnc([C@H]2C[C@@H]2C(=O)Nc2cc(NCc3cn4cc(C5CC5)cc(N5CC(=O)N(C)C5=O)c4n3)ncn2)n1 (racemic) [Example 495]
Result: 1 to 10 nM

Problem: Repeat with O=C(Nc1cc(NCc2cn3cc(C4CC4)ccc3n2)ncn1)[C@H]1C[C@@H]1c1cc(Cl)ccn1 (single isomer, unassigned) [Example I-267]
Result: 1 to 10 nM

Problem: Repeat with O=C(Nc1cc(NCc2cn3cc(C4CC4)ccc3n2)ncn1)[C@H]1[C@H](CO)[C@@H]1c1cccc(Cl)c1 (racemic) [Example I-180]
Result: 10 to 100 nM

Problem: Repeat with CS(=O)(=O)c1cc(C2CC2)cn2cc(CNc3ccnc(NC(=O)[C@H]4C[C@@H]4c4cccc(Cl)c4)c3)nc12 [Example I-235]
Result: < 1 nM

Problem: Repeat with Cc1ccnc([C@H]2C[C@@H]2C(=O)Nc2cc(NCc3nc4c(N5CC(=O)N(C)C5=O)cc(C5CC5)cn4c3F)ncn2)n1 [Example 379]
Result: < 1 nM

Problem: Repeat with CC(C)(O)c1cc(C2CC2)cn2cc(CNc3cc(NC(=O)[C@H]4C[C@@H]4c4cc(Cl)ccc4C#N)ncn3)nc12 (racemic) [Example 337]
Result: 1 to 10 nM

Problem: Repeat with COCc1nc(NCc2cn3cc(C4CC4)ccc3n2)cc(NC(=O)[C@@H]2C[C@H]2c2cccc(Cl)c2)n1 (racemic) [Example 108]
Result: 1 to 10 nM

Problem: Repeat with N#Cc1ccc(Cl)cc1[C@H]1C[C@@H]1C(=O)Nc1cc(NCc2cn3cc(C4CC4)ccc3n2)ncn1 (racemic) [Example 48]
Result: 1 to 10 nM

Problem: Repeat with O=C(Nc1cc(NCc2cn3cc(C4CC4)cc(N4CCS(=O)(=O)CC4)c3n2)ncn1)[C@H]1C[C@@H]1c1cccc(Cl)c1 [Example I-10]
Result: 1 to 10 nM
